Field: LC70. Provide a value for each of the molecules that follow.
Test system: Nephotettix cincticeps
test.name: Insecticidal activity against 1 to 3 day-old adult Nephotettix cincticeps (green rice leafhopper) infested in compound-treated rice seedlings assessed as mortality measured after 3 days
Type: functional
Report the value in ppm with no unit label.

Exam item: // lookup LC70 for CN/C(=N\[N+](=O)[O-])N(C)CC1CCOC1 (racemic)
Marked response: 1

Exam item: Let us now turn to CCCN(CC1CCOC1)/C(=C/[N+](=O)[O-])NC (racemic)
Marked response: 10

Exam item: Let us now turn to CCCN/C(=C\[N+](=O)[O-])NCC1CCOC1 (racemic)
Marked response: 100

Exam item: Let us now turn to O=[N+]([O-])/C=C1\NCCCN1CC1CCOC1 (racemic)
Marked response: 0.1

Exam item: Let us now turn to CCN(C(C)=O)/C(=N\[N+](=O)[O-])N(CC1CCOC1)C(C)=O (racemic)
Marked response: 10

Exam item: Let us now turn to CN/C(=N/CC1CCOC1)N[N+](=O)[O-] (configuration not stated)
Marked response: 0.1
